# tested.system: T1, hIL2Rg-Fc (SinoBiological cat#10555) (human, UniProt P31785 23-254, limits assumed)
# T1 construct: Bought Fc fusion (SinoBiological cat#10555); P31785 is printed for hCD132 in the background; also called human IL2Rg-Fc; not shown: Fc of the bought fusion protein
# T1 sequence (looked up): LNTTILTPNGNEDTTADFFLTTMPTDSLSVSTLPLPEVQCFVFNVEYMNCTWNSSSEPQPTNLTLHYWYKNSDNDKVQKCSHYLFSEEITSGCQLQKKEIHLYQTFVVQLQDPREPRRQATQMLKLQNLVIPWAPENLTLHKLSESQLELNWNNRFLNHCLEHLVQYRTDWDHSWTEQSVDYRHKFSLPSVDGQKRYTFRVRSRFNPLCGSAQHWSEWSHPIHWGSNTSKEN
# method.notes: SPR (Biacore T200), Fc-fused ligand captured on chip, dual VHH as analyte, 1:1 Langmuir fit
# Protocol: All experiments were conducted in 10 mM Hepes, 150 mM NaCl, 0.05% (v/v) Polysorbate 20 (PS20) and 3 mM EDTA (HBS-EP+ buffer) on a Biacore T200 instrument equipped with Protein A or CAP biotin chips (Cytiva). For experiments on Protein A chips, Fc-fused ligands were flowed at 5 μl/min for variable time ranging from 18 to 300 seconds, reaching the capture loads listed in the tables below. […]
reported.metric: Kd (nM)
Give a bare numeral; the unit nM is implied.

Looking up DR474(DR241-DR234) (bispecific antibody, Anti-hIL10Ra/hIL2Rg dual VHH with ASH6 handle; also called H9) QVQLQESGGGSVQAGGSLRLSCAASGYSNCSYDMTWYRQAPGKEREFVSAIHSDGSTRYADSVKGRFFISQDNAKNTVYLQMNSLKPEDTAMYYCKTDPLHCRAHGGSWYSVRANYWGQGTQVTVSSGGGSQVQLQESGGGSVQAGGSLRLSCVASGYTFSSYCMGWFRQAPGKEREGVAALGGGSTYYADSVKGRFTISQDNAKNTLYLQMNSLKPEDTAMYYCAAAWVACLEFGGSWYDLARYKHWGQGTQVTVSSASHHHHHH , I found its Kd recorded as 3.2
